# system: T1, SF6 small terminase (GP1) DBD wild type (Bacillus phage SF6, UniProt P68928 1-68)
# T1 sequence: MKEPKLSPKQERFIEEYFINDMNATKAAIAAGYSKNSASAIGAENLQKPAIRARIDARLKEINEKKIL
# test-protocol: SPR; McGhee-von Hippel, site size 3 bp; not saturated; 20 mM HEPES, 150 mM KCl (300 mM in second ReDCaT), pH 7.0, +0.05% Tween 20 for SPR; ReDCaT 20 uM protein; AUC 20 C; NMR 20 mM MES, 150 mM KCl, pH 6.0, 25 C
# condition-summary: protein: recombinant; tags: C-terminal 3C site-His tag, cleaved; label: 5'-biotin strand 1 (SPR); none in NMR; blunt
measured-endpoint: pKd
pKd is defined as minus the log10 of a concentration measured in mol/L.

Record 20-bp linker dsDNA (dsDNA) DNA 1: GCAGGAGGACGTAGGGTAGG DNA 2: CCTACCCTACGTCCTCCTGC , field pKd: 3.04
